// provenance: ChEMBL document CHEMBL1140955

I'd appreciate it if you could supply Ratio IC50 values for the items below.
# System: Human immunodeficiency virus 1
# PROTOCOL_DESCRIPTION: Antiviral activity against HIV1 LAI infected in human CEM-SS cells assessed as ratio of IC50 for prodrug to IC50 for parent compound
# Assay type: functional
Numbers only.

Recorded results for 3 compounds are shown here.
# COMPOUND, Ratio IC50
data = [
    ("CC(C)[C@@H](N)C(=O)NCCCCCC(=O)O[C@H](CN1C[C@H]2CCCC[C@H]2C[C@H]1C(=O)NC(C)(C)C)[C@H](Cc1ccccc1)NC(=O)[C@H](CC(N)=O)NC(=O)c1ccc2ccccc2n1.O=C(O)C(F)(F)F.O=C(O)C(F)(F)F.O=C(O)C(F)(F)F", 19),
    ("CC(C)[C@H](N)C(=O)O[C@H](CN1C[C@H]2CCCC[C@H]2C[C@H]1C(=O)NC(C)(C)C)[C@H](Cc1ccccc1)NC(=O)[C@H](CC(N)=O)NC(=O)c1ccc2ccccc2n1.O=C(O)C(F)(F)F", 16),
    ("Cc1c(OC(=O)CCCCCNC(=O)[C@@H](N)C(C)C)cccc1C(=O)N[C@@H](CSc1ccccc1)[C@@H](CN1C[C@H]2CCCC[C@H]2C[C@H]1C(=O)NC(C)(C)C)OC(=O)CCCCCNC(=O)[C@H](N)C(C)C.O=C(O)C(F)(F)F.O=C(O)C(F)(F)F", 7750),
]

Next up:
Exercise: Look up and report measured Ratio IC50 for this entry: "Cc1c(OC(=O)CCCCCNC(=O)[C@@H](N)C(C)C)cccc1C(=O)N[C@@H](CSc1ccccc1)[C@H](O)CN1C[C@H]2CCCC[C@H]2C[C@H]1C(=O)NC(C)(C)C.O=C(O)C(F)(F)F"
Key: 47

* * *

# PROTOCOL_DESCRIPTION: Apparent permeability from apical to basolateral side of human Caco-2 cells at 175 uM in donor chamber after 3 hrs
# Type: ADME, cell-based
# EXPERIMENTAL_CONTEXT: read-out: permeability
ENDPOINT_LABEL: Papp A→B at 3 h, 175 µM (×10⁻⁶ cm/s)
One number for each entry, in ×10⁻⁶ cm/s.

Exercise: Look up and report measured Papp A→B at 3 h, 175 µM for this entry: CC(C)(C)NC(=O)[C@@H]1CN(Cc2cccnc2)CCN1C[C@@H](O)C[C@@H](Cc1ccccc1)C(=O)N[C@H]1c2ccccc2C[C@H]1O.O=S(=O)(O)O [INDINAVIR SULFATE]
Key: 1.03

* * *

# PROTOCOL_DESCRIPTION: Apparent permeability from basolateral to apical side of human Caco-2 cells at 26.5 uM in donor chamber after 3 hrs
# Format: ADME, cell-based
# EXPERIMENTAL_CONTEXT: read-out: permeability
ENDPOINT_LABEL: Papp B→A at 3 h, 26.5 µM (×10⁻⁶ cm/s)
Answers are plain numbers, in ×10⁻⁶ cm/s.

Exercise: Look up and report measured Papp B→A at 3 h, 26.5 µM for this entry: "CC(C)[C@@H](N)C(=O)NCCCCCC(=O)O[C@H](CN1C[C@H]2CCCC[C@H]2C[C@H]1C(=O)NC(C)(C)C)[C@H](Cc1ccccc1)NC(=O)[C@H](CC(N)=O)NC(=O)c1ccc2ccccc2n1.O=C(O)C(F)(F)F.O=C(O)C(F)(F)F.O=C(O)C(F)(F)F"
Key: 1.87

* * *

# PROTOCOL_DESCRIPTION: Cytotoxicity against human MT4 cells after 4 days by MTT assay
# Assay type: cell-based
ENDPOINT_LABEL: CC50 at 96 h

# COMPOUND, OBS_VALUE
data = [
    ("CC(C)(C)NC(=O)[C@@H]1CN(Cc2cccnc2)CCN1C[C@@H](O)C[C@@H](Cc1ccccc1)C(=O)N[C@H]1c2ccccc2C[C@H]1O.O=S(=O)(O)O [INDINAVIR SULFATE]", "> 100 µM"),
    ("CC(C)[C@H](N)C(=O)O[C@@H]1Cc2ccccc2[C@@H]1NC(=O)[C@H](Cc1ccccc1)C[C@H](O)CN1CCN(Cc2cccnc2)C[C@H]1C(=O)NC(C)(C)C.O=C(O)C(F)(F)F", "> 100 µM"),
    ("CC(C)[C@H](N)C(=O)O[C@H](CN1C[C@H]2CCCC[C@H]2C[C@H]1C(=O)NC(C)(C)C)[C@H](Cc1ccccc1)NC(=O)[C@H](CC(N)=O)NC(=O)c1ccc2ccccc2n1.O=C(O)C(F)(F)F", "> 10 µM"),
    ("CC(C)[C@H](N)C(=O)NCCCCCC(=O)O[C@@H]1Cc2ccccc2[C@@H]1NC(=O)[C@H](Cc1ccccc1)C[C@H](O)CN1CCN(Cc2cccnc2)C[C@H]1C(=O)NC(C)(C)C.O=C(O)C(F)(F)F", "47 µM"),
    ("Cc1c(OC(=O)CCCCCNC(=O)[C@@H](N)C(C)C)cccc1C(=O)N[C@@H](CSc1ccccc1)[C@@H](CN1C[C@H]2CCCC[C@H]2C[C@H]1C(=O)NC(C)(C)C)OC(=O)CCCCCNC(=O)[C@H](N)C(C)C.O=C(O)C(F)(F)F.O=C(O)C(F)(F)F", "4.8 µM"),
]

Next up:
Exercise: Look up and report measured CC50 at 96 h for this entry: "Cc1c(OC(=O)CCCCCNC(=O)[C@@H](N)C(C)C)cccc1C(=O)N[C@@H](CSc1ccccc1)[C@H](O)CN1C[C@H]2CCCC[C@H]2C[C@H]1C(=O)NC(C)(C)C.O=C(O)C(F)(F)F"
Key: 10 µM

* * *

# PROTOCOL_DESCRIPTION: Chemical stability assessed as hydrolysis half life at pH 7.3
# Type: physicochemical
# EXPERIMENTAL_CONTEXT: buffer
I'd appreciate it if you could supply half-life values for the items below.
Give bare numbers, in h.

# COMPOUND, READOUT_UNIT, OBS_VALUE
records = [
    ("CC(C)[C@H](N)C(=O)O[C@@H]1Cc2ccccc2[C@@H]1NC(=O)[C@H](Cc1ccccc1)C[C@H](O)CN1CCN(Cc2cccnc2)C[C@H]1C(=O)NC(C)(C)C.O=C(O)C(F)(F)F", "h", 46),
]

Required: half-life, one value per compound below.
1. CC(C)[C@H](N)C(=O)O[C@@H](C[C@@H](Cc1ccccc1)C(=O)N[C@H]1c2ccccc2C[C@H]1O)CN1CCN(Cc2cccnc2)C[C@H]1C(=O)NC(C)(C)C.O=C(O)C(F)(F)F
2. Cc1c(OC(=O)CCCCCNC(=O)[C@@H](N)C(C)C)cccc1C(=O)N[C@@H](CSc1ccccc1)[C@H](O)CN1C[C@H]2CCCC[C@H]2C[C@H]1C(=O)NC(C)(C)C.O=C(O)C(F)(F)F
3. CC(C)[C@@H](N)C(=O)NCCCCCC(=O)O[C@H](CN1C[C@H]2CCCC[C@H]2C[C@H]1C(=O)NC(C)(C)C)[C@H](Cc1ccccc1)NC(=O)[C@H](CC(N)=O)NC(=O)c1ccc2ccccc2n1.O=C(O)C(F)(F)F.O=C(O)C(F)(F)F.O=C(O)C(F)(F)F

Key:
68
72
60

* * *

# PROTOCOL_DESCRIPTION: Apparent permeability from basolateral to apical side of human Caco-2 cells at 175 uM in donor chamber after 3 hrs
# Assay type: ADME, cell-based
# EXPERIMENTAL_CONTEXT: read-out: permeability
ENDPOINT_LABEL: Papp B→A at 3 h, 175 µM (×10⁻⁶ cm/s)
Give bare numbers, in ×10⁻⁶ cm/s.

Exercise: Look up and report measured Papp B→A at 3 h, 175 µM for this entry: CC(C)(C)NC(=O)[C@@H]1CN(Cc2cccnc2)CCN1C[C@@H](O)C[C@@H](Cc1ccccc1)C(=O)N[C@H]1c2ccccc2C[C@H]1O.O=S(=O)(O)O [INDINAVIR SULFATE]
Key: 15.5

* * *

# System: Human immunodeficiency virus 1
# PROTOCOL_DESCRIPTION: Antiviral activity against HIV1 3B infected in human MT4 cells assessed as ratio of IC50 for prodrug to IC50 for parent compound
ENDPOINT_LABEL: Ratio IC50
Numbers only.

# COMPOUND, ENDPOINT_LABEL, OBS_VALUE
data = [
    ("CC(C)[C@H](N)C(=O)O[C@H](CN1C[C@H]2CCCC[C@H]2C[C@H]1C(=O)NC(C)(C)C)[C@H](Cc1ccccc1)NC(=O)[C@H](CC(N)=O)NC(=O)c1ccc2ccccc2n1.O=C(O)C(F)(F)F", "Ratio IC50", 16),
]

Required: Ratio IC50, one value per compound below.
1. CC(C)[C@H](N)C(=O)O[C@@H](C[C@@H](Cc1ccccc1)C(=O)N[C@H]1c2ccccc2C[C@H]1O)CN1CCN(Cc2cccnc2)C[C@H]1C(=O)NC(C)(C)C.O=C(O)C(F)(F)F
2. CC(C)[C@H](N)C(=O)O[C@@H]1Cc2ccccc2[C@@H]1NC(=O)[C@H](Cc1ccccc1)C[C@H](O)CN1CCN(Cc2cccnc2)C[C@H]1C(=O)NC(C)(C)C.O=C(O)C(F)(F)F
3. CC(C)[C@H](N)C(=O)NCCCCCC(=O)O[C@@H](C[C@@H](Cc1ccccc1)C(=O)N[C@H]1c2ccccc2C[C@H]1OC(=O)CCCCCNC(=O)[C@@H](N)C(C)C)CN1CCN(Cc2cccnc2)C[C@H]1C(=O)NC(C)(C)C.O=C(O)C(F)(F)F.O=C(O)C(F)(F)F
4. CC(C)[C@@H](N)C(=O)NCCCCCC(=O)O[C@H](CN1C[C@H]2CCCC[C@H]2C[C@H]1C(=O)NC(C)(C)C)[C@H](Cc1ccccc1)NC(=O)[C@H](CC(N)=O)NC(=O)c1ccc2ccccc2n1.O=C(O)C(F)(F)F.O=C(O)C(F)(F)F.O=C(O)C(F)(F)F
5. CC(C)[C@H](N)C(=O)NCCCCCC(=O)O[C@@H]1Cc2ccccc2[C@@H]1NC(=O)[C@H](Cc1ccccc1)C[C@H](O)CN1CCN(Cc2cccnc2)C[C@H]1C(=O)NC(C)(C)C.O=C(O)C(F)(F)F

Key:
1
7
134
19
10
